B1: ZER1 (parent)
chain: FDGPEAWGVCEPQREEVEERMWAA

variants of: B1; test: protein stability index of a GFP-peptide fusion (GPS, HEK-293T) (PSI 1-6); higher = more stable; conditions: c terminus: a fixed tail appended;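 note: lentivirally expressed fusions sorted by FACS into six bins by GFP to DsRed ratio, PSI derived from sequencing read proportions per bin multiplied by bin number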
measured.property: protein stability index
Write the value as a bare number.

These solved cases illustrate the format of a correct answer.
>>> print(df.to_string())
   sequence_change  value_reported
0             M21I            2.63
1              V9P            3.08

# query: protein stability index of entry E18I
2.21

# query: protein stability index of entry W7I
4.89

# query: protein stability index of entry G8I
2.25

# query: protein stability index of entry E15W
1.52

# query: protein stability index of entry C10I
2.86

# query: protein stability index of entry W22Q
2.73

# query: protein stability index of entry V17R
2.24

# query: protein stability index of entry G8D
3.75

# query: protein stability index of entry W7Q
5.22

Entry source: the supplement of paper PMC10567573
